This collection of values is drawn from patent US20180362645A1.

# SYSTEM_UNDER_TEST: T1, human pituitary adenylate cyclase-activating polypeptide type I receptor (human, UniProt P41586 21-468)
# T1 construct: whole, on cells; On SH-SY5Y or recombinant CHO cells (cAMP assay), as membranes of hPAC-1 AequoScreen CHO cells (radioligand assay) and on CHOK1/huPac1 whole cells (KinExA); also called human PAC1; hPAC1
# T1 sequence (looked up): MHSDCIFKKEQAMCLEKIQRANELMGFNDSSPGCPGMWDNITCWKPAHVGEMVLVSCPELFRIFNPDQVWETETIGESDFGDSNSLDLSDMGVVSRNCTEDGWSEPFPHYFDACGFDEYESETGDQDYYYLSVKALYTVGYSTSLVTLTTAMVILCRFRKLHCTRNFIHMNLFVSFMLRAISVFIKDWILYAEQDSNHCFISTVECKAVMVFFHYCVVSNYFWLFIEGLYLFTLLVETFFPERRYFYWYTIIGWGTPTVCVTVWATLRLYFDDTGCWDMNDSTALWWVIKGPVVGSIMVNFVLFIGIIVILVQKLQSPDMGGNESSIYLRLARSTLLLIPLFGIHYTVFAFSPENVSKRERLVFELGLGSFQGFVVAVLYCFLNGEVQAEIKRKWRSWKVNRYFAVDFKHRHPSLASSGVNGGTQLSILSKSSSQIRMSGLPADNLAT
# ASSAY_DETAILS: radioligand competition, hPAC1 CHO membranes; competitor 125I-28A
pKi: −log10 of the molar value.
QUANTITY_MEASURED: pKi

BINDER	REPORTED_RELATION	READOUT_NUMBER
28A (antibody, human IgG2, kappa, V domains shown, also called LC-10 and HC-39) VH: QVQLVESGGGVVQPGRSLRLSCAASGFTFSRYAMHWVRQASGKGLEWVAVISYDGSNKYYADSVKGRFTISRDNSKNTLYLLMSSLRAEDTAVFYCARGYDILTGYPDYWGQGTLVTVSS VL: EIVLTQSPDFQSVTPKEKVTITCRASQSIGRSLHWYQQKPDQSPKLLFKYASQSLSGVPSRFSGSGSGTDFTLTINSLEAEDAATYYCHQSSRLPFTFGPGTKVDIKR	>	11.00
05A (antibody, human IgG2, kappa, V domains shown, also called LC-05 and HC-06) VH: QVQLVESGGGVVQPGRSLRLSCAASGFTFSRFAMHWVRRAPGKGLEWVAVISYDGGNKYYAESVKGRFTISRDNSKNTLNLLMNSLRAEDTALFYCARGYDVLTGYPDYWGQGTLVTVSS VL: DIQLTQSPSFLSASVGDRVTITCRASQSIGRSLHWYQQKPGKAPKLLIKYASQSLSGVPSRFSGSGSGTEFTLTISSLQPEDFATYYCHQSSRLPFTFGPGTKVDIKR	=	10.70
FTDSYSRYRKQMAVKKYLAAVLGKRYKQRVKNK (peptide, UniProt P18509 137-169, looked up, domain: PACAP 6-38) [PACAP 6-38]	=	8.69
03A (antibody, human IgG2, kappa, V domains shown, also called LC-03 and HC-03) VH: QVQLVESGGGVVQPGRSLRLSCAASGFTFSYYAIHWVRQAPGKGLEWVAVISYDGSNKYYADSVKGRFTISRDNSKNTLYLQMNSLRAEDTAVYYCARGYDLLTGYPDYWGQGTLVTVSS VL: DIQLTQSPSFLSASVGDRVTITCRASQSIGRSLHWYQQKPGKAPKLLIKYASQSLSGVPSRFSGSGSGTEFTLTISSLQPEDFATYYCHQSSRLPFTFGPGTKVDIKR	=	11.00
